# credit: ChEMBL document CHEMBL1201862

tested on: SNB-75; assay: NCI tumour cell line growth inhibition, 48 h
Active and inactive are the calls of the source. Cut-off read from the data, not from the text of the source: active = GI50 up to about 1.1 µM and inactive = higher.
Measured GI50, listed per entry for reference.
quantity.measured: GI50

Cc1nn(C(=O)c2ccc(Cl)cc2)c2c1C(c1ccco1)SC(=N)N2 (stereo unspecified)    > 10 µM (inactive)
O=C1NCCN1/N=C/c1c(Cl)n(-c2ccccc2)c2ccccc12    21.1 µM (inactive)
COC(=O)/C(=N\Nc1nnc(C)n1N)C(C#N)c1ccc(Cl)cc1 (stereo unspecified)    > 100 µM (inactive)
CNS(=O)(=O)NNS(=O)(=O)c1ccc(OC)cc1    > 100 µM (inactive)
COc1ccc2nc(N/N=C/C(C)=N/Nc3cc(C)c4cc(OC)ccc4n3)cc(C)c2c1    21.9 µM (inactive)
Cc1ccc2c(O)cc(-c3ccc(C)s3)nc2n1    0.254 µM (active)
Oc1ccc2ccccc2c1/N=N/c1ccc(F)cc1    > 100 µM (inactive)
CC(NC1=NCCO1)c1ccccc1Cl (stereo unspecified)    96.2 µM (inactive)
CN1OC(CO)CC12C1CC3CC(C1)CC2C3 (stereo unspecified)    > 100 µM (inactive)
C=CCN1C(=O)C/C(=C2/CCC(=O)N2CC=C)C1=O    > 100 µM (inactive)
C=C(C(=O)O[C@H]1C/C(C)=C/CC/C(CO)=C/[C@H]2C(=O)OC(=C)[C@H]12)C(O)CO (stereo partly specified)    18.7 µM (inactive)
